Biological target: Thromboxane A2 receptor (Rattus norvegicus, UniProt P34978)
Sequence (P34978 whole entry): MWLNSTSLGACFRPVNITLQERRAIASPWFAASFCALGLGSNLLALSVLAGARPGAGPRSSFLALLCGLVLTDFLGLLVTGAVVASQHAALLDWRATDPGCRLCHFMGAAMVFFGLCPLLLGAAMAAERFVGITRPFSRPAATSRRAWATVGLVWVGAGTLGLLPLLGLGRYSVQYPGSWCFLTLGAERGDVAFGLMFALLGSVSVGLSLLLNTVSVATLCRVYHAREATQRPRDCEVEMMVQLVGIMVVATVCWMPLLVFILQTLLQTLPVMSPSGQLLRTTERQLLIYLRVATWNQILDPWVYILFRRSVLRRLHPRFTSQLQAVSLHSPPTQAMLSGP
Test: In vitro thromboxane A2 antagonistic activity on U-46619 (0.1 uM) induced contraction of rat aorta
pIC50: −log10 of the molar value.
quantity measured: pIC50

Worked examples follow.
>>> value_observed("O=C(O)Cc1ccc2c(c1)CC(CCCCNS(=O)(=O)c1ccc(Cl)cc1)C2 (stereo unspecified)")
6.01
>>> value_observed("O=C([O-])Cc1ccc2c(c1)CC(CNS(=O)(=O)c1ccc(Cl)cc1)C2.[Na+] (stereo unspecified)")
8.52

(1) O=C(O)Cc1ccc2c(c1)CC(CNS(=O)(=O)Cc1ccccc1)C2 (stereo unspecified)
(2) O=C(O)Cc1ccc2c(c1)CC(CNS(=O)(=O)c1cccnc1)C2 (stereo unspecified)
## Task From the recorded data, which exceeds the other in pIC50: 1 or 2 ? Lab note: record the label of whichever item you select.
## Result 2
(2: 5.72, 1: 5.23)

(A) O=C(O)Cc1ccc2c(c1)CC(CNS(=O)(=O)c1ccc(Cl)cc1)O2 (stereo unspecified)
(B) O=C([O-])Cc1ccc2c(c1)CC(CCNS(=O)(=O)c1ccc(Cl)cc1)C2.[Na+] (stereo unspecified)
(C) O=C(O)Cc1ccc2c(c1)CC(CNS(=O)(=O)c1cccs1)C2 (stereo unspecified)
(D) O=C(O)Cc1ccc2c(c1)CC(NS(=O)(=O)c1ccc(Cl)cc1)C2 (stereo unspecified)
## Task Which order do these items take when sorted by rising pIC50? List them. To answer, arrange all of the labels according to the requested order.
## Result A, C, B, D
(A: 6.85, C: 7.07, B: 7.50, D: 8.66)

(a) O=C([O-])CCc1ccc2c(c1)CC(CNS(=O)(=O)c1ccc(Cl)cc1)C2.[Na+] (stereo unspecified)
(b) CCCCCS(=O)(=O)NCC1Cc2ccc(CC(=O)O)cc2C1 (stereo unspecified)
## Task Which gives the smaller pIC50 number: a or b ? Refer to your chosen entry by its label in the reply.
## Result b
(b: 5.85, a: 7.83)

(P) O=C(O)Cc1ccc2c(c1)CC(CNS(=O)(=O)c1ccccc1)C2 (stereo unspecified)
(Q) O=C(O)Cc1ccc2c(c1)CC(CNS(=O)(=O)C1CCCCC1)C2 (stereo unspecified)
## Task Compare reported pIC50 values for P and Q . Which is lower? Pick one and reply with its label.
## Result Q

====

Biological target: Thromboxane A2 receptor (Rattus norvegicus, UniProt P34978)
Sequence (P34978 whole entry): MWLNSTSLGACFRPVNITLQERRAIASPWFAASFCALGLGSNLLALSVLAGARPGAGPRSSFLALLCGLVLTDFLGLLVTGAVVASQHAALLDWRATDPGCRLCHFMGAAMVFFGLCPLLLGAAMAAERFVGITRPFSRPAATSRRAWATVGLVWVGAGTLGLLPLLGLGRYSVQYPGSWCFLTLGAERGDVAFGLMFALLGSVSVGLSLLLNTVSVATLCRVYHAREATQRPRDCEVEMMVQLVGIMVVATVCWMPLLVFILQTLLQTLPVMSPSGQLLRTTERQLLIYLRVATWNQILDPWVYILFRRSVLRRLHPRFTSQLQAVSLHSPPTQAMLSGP
Experiment: In vitro thromboxane A2 antagonistic activity on U-46619 (0.1 uM) induced contraction of rat aorta
pIC50: −log10 of the molar value.
quantity measured: pIC50

(P) O=C(O)c1ccc2c(c1)CC(CCCNS(=O)(=O)c1ccc(Cl)cc1)C2 (centres undefined)
(Q) O=C([O-])Cc1ccc2c(c1)CC(CNS(=O)(=O)c1ccc3ccccc3c1)C2.[Na+] (centres undefined)
(R) O=C(O)CCCCc1ccc2c(c1)CC(CNS(=O)(=O)c1ccc(Cl)cc1)C2 (centres undefined)
## Task Ranking by pIC50 (descending) is requested for the entries above. Answer by listing the labels in the order asked for.
## Result Q, R, P
(Q: 7.65, R: 7.45, P: 7.07)
